Origin of measurements: patent US20210198277A1

- Target: human EHMT2 913-1193 (Homo sapiens, UniProt Q96KQ7)
- Construct: recombinant purified human EHMT2 913-1193, Viva; purchased Viva
- Sequence (Q96KQ7 913-1193): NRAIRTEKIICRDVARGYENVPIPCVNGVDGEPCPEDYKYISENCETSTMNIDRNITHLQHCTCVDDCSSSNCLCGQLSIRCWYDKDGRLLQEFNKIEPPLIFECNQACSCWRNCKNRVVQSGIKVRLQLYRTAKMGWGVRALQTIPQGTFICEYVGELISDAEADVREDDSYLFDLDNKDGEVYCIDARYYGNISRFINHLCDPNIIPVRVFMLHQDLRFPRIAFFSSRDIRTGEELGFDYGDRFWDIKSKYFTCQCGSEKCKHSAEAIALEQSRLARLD
- Method: EHMT2 enzyme assay on histone peptide substrate (EHMT2 PEP)
- Assay type: biochemical
- Test settings: Table II; read-out: EHMT2 PEP (IC50 μM)
Observation type: IC50

IC50 lookup needed for COc1ccc(Nc2nccc(-c3c(C)n[nH]c3C)n2)cc1OCCCN1CCCC1 [Compound 129] , thanks. > 10 µM

What do we get for COc1ccc(Nc2nccc(NCC3CCN(C(C)=O)CC3)n2)cc1OCC1CCN(C)C1 (centres unmarked) [Compound 18] ? 0.1 to 1 µM

What do we get for COc1ccc(Nc2nccc(N3CCC(O)CC3)n2)cc1OCCCN1CCCC1 [Compound 148] ? 1 to 10 µM

What do we get for COc1ccc(Nc2nccc(NCC3CCN(c4ccccc4)CC3)n2)cc1OCCCN1CCCC1 [Compound 33] ? < 0.1 µM

What do we get for COc1ccc(Nc2nccc(NCC3CCN(C(C)=O)CC3)n2)cc1OCC(C)CN1CCCC1 (centres unmarked) [Compound 183] ? 1 to 10 µM

What do we get for CNc1nc(C)cc(Nc2ccc(OC)c(OCCCN3CCCC3)c2)n1 [Compound 208] ? 0.1 to 1 µM

What do we get for COc1ccc(Nc2cc(N(C)CC3CCN(C(C)=O)CC3)ccn2)cc1OCCCN1CCCC1 [Compound 163] ? > 10 µM

What do we get for O=C(NCCNc1ccnc(NCC2CCNCC2)n1)c1cn(C2CC2)nn1 [Compound 93] ? > 10 µM

====

- Target: EHMT1 (Homo sapiens, UniProt Q9H9B1)
- Method: EHMT1 enzyme assay on peptide substrate (EHMT1 PEP)
- Format: biochemical
- Test settings: Table VI; read-out: EHMT1 PEP IC50
Observation type: IC50

IC50 lookup needed for COc1cc2c(C3CCN(C)CC3)cc(C#N)nc2cc1OCCCN1CCCC1 [Compound 790] , thanks. < 100 nM

What do we get for CCN1CC[C@@H](COc2cc(Nc3nc(NC)cc(C(C)C)n3)ccc2OC)C1 [Compound 672] ? < 100 nM

What do we get for COc1ccc(Nc2cc(C)[nH]n2)cc1OCCCN1CCCC1 [Compound 796] ? > 10000 nM

What do we get for CCN1CCO[C@H](COc2cc(Nc3nccc(NC)n3)ccc2OC)C1 [Compound 937] ? > 10000 nM

What do we get for COc1ccc(Nc2nc(C)cc(NCCS(=O)(=O)N(C)C)n2)cc1OCCCN1CCCC1 [Compound 893] ? < 100 nM

What do we get for COc1cnc(Nc2cccc3[nH]ncc23)nc1OCCCN1CCCC1 [Compound 655] ? > 10000 nM

What do we get for CNc1nc(C)c2cc(OC)c(OCCCN3CCCC3)cc2n1 [Compound 737] ? 1000 to 10000 nM

What do we get for CNc1nc(C2=CC(C)(C)NC(C)(C)C2)c2cc(OC)c(OCCCN3CCCC3)cc2n1 [Compound 961] ? 1000 to 10000 nM

What do we get for CNc1cc2sccc2c(Nc2cc(OCCCN3CCCC3)c(OC)cn2)n1 [Compound 609] ? 100 to 1000 nM

What do we get for CCN1CCC(O)(COc2cc(Nc3nccc(NC)n3)ccc2OC)C1 (stereo not drawn) [Compound 1007] ? 1000 to 10000 nM

What do we get for COc1cc2c(C3CCCN(C)C3)nc(C)nc2cc1OCCCN1CCCC1 (stereo not drawn) [Compound 743] ? 1000 to 10000 nM

What do we get for CNc1cc(C)c2cc(OC)c(C#CCN3CCCC3)cc2n1 [Compound 859] ? < 100 nM

What do we get for COc1cc2c(C3CCN(C(C)C)CC3)cc(C)nc2nc1OCCCN1CCCC1 [Compound 670] ? 100 to 1000 nM

What do we get for COc1ccc(Nc2nc(C)cc(NC(C)C)n2)cc1OC[C@@H]1CCNC1 [Compound 800] ? < 100 nM

What do we get for CNc1cc(C2CCN([C@@H]3CCOC3)CC2)c2cc(OC)c(OCCCN3CCCC3)cc2n1 [Compound 866] ? < 100 nM

What do we get for CNCC(C)COc1cc(Nc2nccc(NC)n2)ccc1OC (stereo not drawn) [Compound 1009] ? 1000 to 10000 nM

What do we get for CNc1ccnc(Nc2ccc(OC)c(OCC(C)CN3CCC3)c2)n1 (stereo not drawn) [Compound 1008] ? < 100 nM

What do we get for CNc1cc(C2CCN(C(C)=O)CC2)c2cc(OC)c(OCCCN3CCCC3)cc2n1 [Compound 809] ? < 100 nM

====

- Target: human EHMT2 913-1193 (Homo sapiens)
- Construct: recombinant purified human EHMT2 913-1193, Viva; purchased Viva
- Method: EHMT2 enzyme assay on histone peptide substrate (EHMT2 PEP)
- Format: biochemical
- Test settings: recombinant human EHMT2 913-1193, histone H3 1-15 peptide, balanced conditions; read-out: EHMT2 PEP (IC50 μM)
Observation type: IC50

Value wanted: IC50 (human EHMT2 913-1193 (Homo sapiens)) of entry c1nc(NC2CCOCC2)ncc1OCC1CCN(C2CC2)C1 (stereo not drawn) > 10 µM

What do we get for COc1cc2c(C3CCN(C)CC3)nc(N3CCC(F)(F)CC3)nc2cc1OCCCN1CCCC1 ? 0.1 to 1 µM

What do we get for CNc1cc(C)nc(Nc2cnc(C3CC3)c(OCCCN3CCCC3)c2)n1 ? 1 to 10 µM

What do we get for CNc1cc(C)nc(Nc2cnc(OC)c(OCCCN3CC4CC4C3)c2)n1 (stereo not drawn) ? 0.1 to 1 µM

What do we get for CNc1cc(C)nc(Nc2ccc(OC)c(OCC3CN(C4CCCC4)C3)c2)n1 ? 1 to 10 µM

What do we get for CNc1nc(C2CCN(C(C)=O)CC2)c2cc(OC)c(OCCCN3CCCC3)cc2n1 ? 0.1 to 1 µM

What do we get for COc1cnc(Nc2nc(C)cc3[nH]ccc23)cc1OC[C@@H]1CCN(C2CC2)C1 ? 0.1 to 1 µM

What do we get for CNc1cc(C)nc(Nc2ccc(OC)c(OCC3CN(C4CCOC4)C3)c2)n1 (stereo not drawn) ? > 10 µM

What do we get for CNc1nc(C2CCOCC2)c2cc(OC)c(OCCCN3CCCC3)cc2n1 ? 1 to 10 µM

What do we get for CNc1nc(C2CCN(C(C)C)CC2)c2cc(OC)c(OCCCN3CCCC3)cc2n1 ? < 0.1 µM

What do we get for COc1ncc(Nc2nc(C)cc(NCC3CCOCC3)n2)cc1OC[C@@H]1CCN(C2CCC2)C1 [Compound 594] ? 0.1 to 1 µM

What do we get for CNc1cc(C)nc(Nc2ccc(OC)c(OCCCN3CC(O)C3)c2)n1 ? < 0.1 µM

What do we get for CNc1cc(C)nc(Nc2ccc(OC)c(OC[C@H]3CCCN(C4CC4)C3)c2)n1 [Compound 517b] ? 0.1 to 1 µM

What do we get for COc1ccc(Nc2nc(C)cc(NCC3CCOCC3)n2)cc1OCCCN1CCCC1 ? < 0.1 µM

What do we get for CC(C)N1CC(COc2cnc(NC3CCNCC3)nc2)C1 ? > 10 µM

What do we get for CNc1cc(C)nc(Nc2ccc(OC)c(OC[C@@H]3CCN(C4(C)CC4)C3)c2)n1 ? 0.1 to 1 µM

What do we get for COc1cnc(Nc2ccnc3[nH]ncc23)cc1OCCCN1CCCC1 ? 1 to 10 µM

What do we get for COc1cc(Nc2nc(C)cc3[nH]ncc23)ncc1OCCCN1CCCC1 ? 1 to 10 µM

====

- Target: EHMT1 (Homo sapiens, UniProt Q9H9B1)
- Sequence (Q9H9B1 1-1298): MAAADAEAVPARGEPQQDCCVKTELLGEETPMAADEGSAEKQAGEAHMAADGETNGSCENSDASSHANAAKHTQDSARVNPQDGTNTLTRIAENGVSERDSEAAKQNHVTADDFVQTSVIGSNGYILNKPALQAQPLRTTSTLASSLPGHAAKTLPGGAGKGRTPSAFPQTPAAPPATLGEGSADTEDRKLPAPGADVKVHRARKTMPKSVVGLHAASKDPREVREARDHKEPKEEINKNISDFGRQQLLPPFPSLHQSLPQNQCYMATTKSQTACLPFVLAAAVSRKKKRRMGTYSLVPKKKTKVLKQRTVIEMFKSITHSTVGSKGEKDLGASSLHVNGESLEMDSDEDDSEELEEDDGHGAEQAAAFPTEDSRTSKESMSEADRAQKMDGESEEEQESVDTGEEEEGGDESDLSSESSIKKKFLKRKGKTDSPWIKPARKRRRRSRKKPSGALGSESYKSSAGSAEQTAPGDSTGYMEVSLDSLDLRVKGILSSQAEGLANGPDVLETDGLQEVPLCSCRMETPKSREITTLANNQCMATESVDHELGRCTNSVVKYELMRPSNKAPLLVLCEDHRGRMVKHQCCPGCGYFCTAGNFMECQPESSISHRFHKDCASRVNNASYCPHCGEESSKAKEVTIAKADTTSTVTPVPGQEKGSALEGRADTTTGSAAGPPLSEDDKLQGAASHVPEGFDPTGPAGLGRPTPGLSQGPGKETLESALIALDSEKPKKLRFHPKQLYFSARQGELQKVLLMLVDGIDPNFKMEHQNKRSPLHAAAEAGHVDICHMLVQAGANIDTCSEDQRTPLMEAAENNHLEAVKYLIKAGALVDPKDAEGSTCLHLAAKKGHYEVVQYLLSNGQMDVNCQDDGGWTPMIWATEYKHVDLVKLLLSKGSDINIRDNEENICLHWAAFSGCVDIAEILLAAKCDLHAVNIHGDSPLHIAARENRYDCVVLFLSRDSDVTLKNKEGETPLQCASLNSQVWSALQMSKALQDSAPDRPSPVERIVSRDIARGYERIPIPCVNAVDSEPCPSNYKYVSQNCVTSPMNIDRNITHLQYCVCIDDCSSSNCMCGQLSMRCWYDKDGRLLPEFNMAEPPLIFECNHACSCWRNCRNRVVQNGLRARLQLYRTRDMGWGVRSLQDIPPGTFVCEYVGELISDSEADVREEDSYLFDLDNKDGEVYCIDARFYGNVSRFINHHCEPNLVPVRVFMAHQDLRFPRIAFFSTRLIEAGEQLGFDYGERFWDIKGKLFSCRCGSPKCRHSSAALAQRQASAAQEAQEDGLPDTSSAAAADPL
- Method: EHMT1 enzyme assay on peptide substrate (EHMT1 PEP)
- Type: biochemical
- Test settings: Table II; read-out: EHMT1 PEP (IC50 μM)
Task for the reader: assign each of the following molecules its reported IC50.

Value wanted: IC50 (EHMT1 (Homo sapiens, UniProt Q9H9B1)) of entry CCCCNc1nccc(NCC2CCOCC2)n1 [Compound 59] > 10 µM

What do we get for COc1ccc(Nc2cc(OCC3CCN(C(C)=O)CC3)ccn2)cc1OCCCN1CCCC1 [Compound 173] ? 1 to 10 µM

What do we get for COc1ccc(Nc2cncc(NCC3CCN(C(C)=O)CC3)c2)cc1OCCCN1CCCC1 [Compound 184] ? > 10 µM

What do we get for COc1ccc(Nc2cccc3nn(C)cc23)cc1OCCCN1CCCC1 [Compound 197] ? > 10 µM

What do we get for COc1ccc(Nc2nccc(N3CCC(NC(C)=O)CC3)n2)cc1OCCCN1CCCC1 [Compound 161] ? > 10 µM

What do we get for COc1ccc(Nc2nccc(NCC(=O)N3CCOCC3)n2)cc1OCCCN1CCCC1 [Compound 51] ? 0.1 to 1 µM

What do we get for COc1ccc(Nc2ncc(NC(C)=O)cn2)cc1OCCCN1CCCC1 [Compound 194] ? > 10 µM

What do we get for COc1ccc(Nc2nccc(NCc3cc[nH]n3)n2)cc1OCCCN1CCCC1 [Compound 46] ? 0.1 to 1 µM

What do we get for COc1ccc(Nc2nccc(NCc3ccc4[nH]ncc4c3)n2)cc1OCCCN1CCCC1 [Compound 164] ? > 10 µM

What do we get for COc1ccc(Nc2ccc3ncn(C)c3n2)cc1OCCCN1CCCC1 [Compound 218] ? > 10 µM

What do we get for COc1ccc(Nc2nccc(N(C)CCCO)n2)cc1OCCCN1CCCC1 [Compound 140] ? 1 to 10 µM

What do we get for COc1ccc(Nc2cc(C)nc3ncnn23)cc1OCCCN1CCCC1 [Compound 202] ? > 10 µM

What do we get for CCCCNc1nccc(NCC2CCNCC2)n1 [Compound 60] ? 1 to 10 µM

What do we get for CCCCNc1nccc(NC2CCCCC2)n1 [Compound 58] ? > 10 µM

What do we get for COc1ccc(Nc2nccc(NCC3CCN(CC(F)(F)F)CC3)n2)cc1OCCCN1CCCC1 [Compound 4] ? 0.1 to 1 µM

What do we get for COc1ccc(Nc2nccc(NCc3nc4ccccc4[nH]3)n2)cc1OCCCN1CCCC1 [Compound 31] ? 0.1 to 1 µM

What do we get for O=C(NCCNc1ccnc(NCC2CCNCC2)n1)c1ccc2[nH]c(=O)oc2c1 [Compound 95] ? > 10 µM

What do we get for COc1ccc(Nc2nccc(NC3CCOCC3)n2)cc1OCCCN1CCCC1 [Compound 5] ? 0.1 to 1 µM

What do we get for COc1ccc(Nc2nccc(N3CCc4[nH]ncc4C3)n2)cc1OCCCN1CCCC1 [Compound 128] ? > 10 µM
